- TESTED_TARGET: T1, Bfl-1 (human, UniProt Q16548 1-175)
- T1 construct: Bfl-1 (Bcl-2-related protein A1), human recombinant; also called Bcl-2-related protein A1; source: bought: R&D Systems
- T1 sequence (looked up): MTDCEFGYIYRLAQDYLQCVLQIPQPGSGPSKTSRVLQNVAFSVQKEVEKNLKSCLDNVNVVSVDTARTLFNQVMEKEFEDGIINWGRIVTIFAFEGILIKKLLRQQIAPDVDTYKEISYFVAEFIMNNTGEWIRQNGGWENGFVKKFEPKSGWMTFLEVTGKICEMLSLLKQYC
- PROCEDURE_SUMMARY: SPR; Biacore S200; Bcl-2 family proteins immobilised on CM5 (amine coupling or His-Capture Kit); peptides and flag-tagged proteins as analytes, single-cycle kinetics, HBS-EP, 25 °C; 1:1 Langmuir model; absence of binding probed at 100 nM and 3 µM
- SETUP_CONDITIONS: both partners purified
What Kd was measured for each of the following?
Numbers only, in nM.

Examples with answers:
BINDER	ENDPOINT_NAME	UNIT_LABEL	READOUT_NUMBER
ESQEDIIRNIIRHLAQVGDSMDRSI (source: synthetic peptide (ABclonal, >95% purity)) [Bid (A87I) peptide]	Kd	nM	1430
ESQEDIIRNIARHLAQVGDSMDRSI (Bid, BH3-only motif, residues 77-101; source: synthetic peptide (ABclonal, >95% purity)) [Bid BH3 peptide (25-mer, residues 77-101)]	Kd	nM	0.31

In: Dear colleague, I am looking for the recorded Kd of the following binder: DMRPEIWIIQELRRIGDEFNAYYAR (also called Bim (A149A) (as printed in the methods); source: synthetic peptide (ABclonal, >95% purity)) [Bim (A149I) peptide]
Out: 18.8
